These measurements were taken from patent US20210238138A1.

experiment: Solubility of Brivaracetam in IPAc; conditions: IPAc (isopropyl acetate), 45 °C, organic solvent or mixture
measure: solubility

{"input smiles": "CCC[C@@H]1CC(=O)N([C@@H](CC)C(N)=O)C1", "recorded result": "~1100 mg/mL"}

----------
assay: Solubility of Brivaracetam in IPAc; conditions: IPAc (isopropyl acetate), 20 °C, organic solvent or mixture

{"input smiles": "CCC[C@@H]1CC(=O)N([C@@H](CC)C(N)=O)C1", "solubility (mg/mL)": 136}
